Reported Kd values are given for each entry in this list.
Molecular target: T1, human GREM1 (hGREM1-His; SEQ ID NO: 595) (human, UniProt O60565 25-184)
T1 construct: also called biotin-hGREM1-His; recombinant human GREM1 protein
T1 sequence: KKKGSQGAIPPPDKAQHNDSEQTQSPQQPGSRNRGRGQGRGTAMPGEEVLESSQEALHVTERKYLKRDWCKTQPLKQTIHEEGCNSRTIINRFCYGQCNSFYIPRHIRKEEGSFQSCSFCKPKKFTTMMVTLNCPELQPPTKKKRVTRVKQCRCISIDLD
Experiment: SPR, Biacore T200, 37 C, mAb captured, hGREM1-His injected;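 note: HBS-EP running buffer containing heparin, association and dissociation phases tracked, KD computed as koff over kon and half-life derived from koff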
Give just the numeric value; nM need not be written.

H4H2889N (antibody, human IgG4, V domains shown, H4H prefix = human IgG4 Fc) VH: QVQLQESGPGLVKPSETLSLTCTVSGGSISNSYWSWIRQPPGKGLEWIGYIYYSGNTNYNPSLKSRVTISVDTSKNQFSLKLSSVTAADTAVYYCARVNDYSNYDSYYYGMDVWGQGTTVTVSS VL: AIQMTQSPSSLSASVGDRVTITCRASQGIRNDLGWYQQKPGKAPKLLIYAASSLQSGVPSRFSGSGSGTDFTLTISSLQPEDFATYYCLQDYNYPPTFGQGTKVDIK ... 4.06
H4H2783N2 (antibody, human IgG4, V domains shown, H4H prefix = human IgG4 Fc) VH: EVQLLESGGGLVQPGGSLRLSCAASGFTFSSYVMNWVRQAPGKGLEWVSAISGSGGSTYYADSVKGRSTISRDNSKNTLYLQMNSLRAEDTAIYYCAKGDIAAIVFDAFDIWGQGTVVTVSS VL: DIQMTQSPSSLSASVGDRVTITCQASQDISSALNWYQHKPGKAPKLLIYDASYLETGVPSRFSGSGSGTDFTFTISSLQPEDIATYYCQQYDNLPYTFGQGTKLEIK ... 61.1
H4H6245P (antibody, human IgG4, V domains shown, H4H prefix = human IgG4 Fc) VH: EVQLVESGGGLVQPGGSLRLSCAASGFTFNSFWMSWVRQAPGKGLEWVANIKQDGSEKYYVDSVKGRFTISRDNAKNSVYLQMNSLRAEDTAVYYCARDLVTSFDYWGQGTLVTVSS VL: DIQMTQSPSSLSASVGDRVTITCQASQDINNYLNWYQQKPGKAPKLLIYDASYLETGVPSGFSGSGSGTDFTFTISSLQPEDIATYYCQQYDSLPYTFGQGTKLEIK ... 2.53
H4H6252P (antibody, human IgG4, V domains shown, H4H prefix = human IgG4 Fc; also called H4H6252S) VH: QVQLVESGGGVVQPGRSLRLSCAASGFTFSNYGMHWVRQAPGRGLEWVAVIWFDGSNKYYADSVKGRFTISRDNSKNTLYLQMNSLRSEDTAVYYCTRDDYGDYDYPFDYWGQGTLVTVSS VL: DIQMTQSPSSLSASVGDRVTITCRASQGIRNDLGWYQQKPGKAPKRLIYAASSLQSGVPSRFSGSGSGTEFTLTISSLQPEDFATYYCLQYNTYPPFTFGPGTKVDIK ... 4.14

Prompt: Specify Kd for H4H6269P (antibody, human IgG4, V domains shown, H4H prefix = human IgG4 Fc) VH: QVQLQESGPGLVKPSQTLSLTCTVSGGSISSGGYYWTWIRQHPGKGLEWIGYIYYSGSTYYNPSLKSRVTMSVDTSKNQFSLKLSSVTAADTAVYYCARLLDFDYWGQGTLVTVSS VL: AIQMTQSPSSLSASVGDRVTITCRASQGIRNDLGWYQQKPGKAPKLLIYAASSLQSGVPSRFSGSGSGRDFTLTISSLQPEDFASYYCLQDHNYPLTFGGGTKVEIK and stop.
Completion: 1.98
